target: muscarinic receptors; assay: 3H-oxotremorine-M binding assay; conditions: 3 nM 3H-oxotremorine-M, rat cerebral cortical membranes, 15 min 25° C.; read-out: Inhibition of 3H-Oxo
Give IC50 for every item shown.
State the answer as a number, implicitly in nM.

QUERY: Given the entry CCCOc1nsnc1[C@H]1CN2CCC[C@H]1C2 (relative stereo) , report its measured IC50.
RESULT: 0.9

QUERY: Thanks! And CCCCCCSc1nsnc1[C@H]1CN2CCC[C@H]1C2 (relative stereo) ?
RESULT: 1.2

QUERY: Next compound up: CCCCSc1nsnc1C1CN2CCCC1C2 (single isomer, unassigned) [Compound 111]
RESULT: 1

QUERY: Try CCCSc1nsnc1[C@H]1CN2CCC[C@H]1C2 (relative stereo) next.
RESULT: 0.8

QUERY: Now the compound O=C(O)/C=C/C(=O)O.c1ccc(OCCSc2nsnc2C2CN3CCC2CC3)cc1 (centres unmarked) [Compound 102, fumarate]
RESULT: 4.5

QUERY: Same for FC(F)(F)CCCSc1nsnc1C1CN2CCCC1C2 (single isomer, unassigned; (-)) [Compound 130]
RESULT: 1.8

QUERY: What do you get for CCSc1nsnc1C1CN2CCC1CC2.O=C(O)C(=O)O (centres unmarked) [Compound 52, oxalate] ?
RESULT: 1.8

QUERY: Another: CCSc1nsnc1[C@H]1CN2CCC[C@H]1C2 (relative stereo)
RESULT: 1.3
